Experimental target: T1, hu-sCD47-6His; extracellular domain of human CD47 antigen with 6His-tag (human)
T1 construct: also called hCD47-his; soluble hCD47
Test summary: SPR Biacore;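 also: antibodies captured on anti-IgG CM5 chip, soluble His-tagged human CD47 flowed over at rising concentrations, five 10 min injections, flow cell 1 as reference, 1:1 model fit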
Assay endpoint: Kd (nM)

1) h20-VH5-VL5 (candidate 20.25) (antibody, human IgG4 S228P, kappa, V domains shown, hIgG4-S228P/kappa; also called h20-H5-L5) VH: QVQLVQSGAEVKKPGASVKVSCKASGYSFTDYYINWVRQAPGQGLEWMGRIYPGIGNTYYNKKFKGRVTMTRYTSISTAYMELSRLRSDDTAVYFCARGHYGRGMDYWGQGTTVTVSS VL: DIVMTQSPDSLAVSLGERATINCKSSQSLLNSIDQKNYLAWYQQKPGQPPKLLIYFASTKESGVPDRFSGSGSGTDFTLTISGLQAEDVAVYFCQQHYSTPWTFGGGTKVEIRR	9.69
2) h20-VH1-VL4 (candidate 20.4) (antibody, human IgG4 S228P, kappa, V domains shown, hIgG4-S228P/kappa; also called h20-H1-L4) VH: QVQLLESGAVLARPGTSVKISCKASGYSFTDYYINWVKQRPGQGLEWIGRIYPGIGNTYYNKKFKGRAKLTAATSASIAYLEFSSLTNEDSAVYYCARGHYGRGMDYWGQGTLVTVSS VL: DIVMTQSPDSLAVSLGERATINCKSSQSLLNSIDQKNYLAWYQQKPGQPPKLLIYFASTKESGVPDRFSGSGSGTDFTLTISSLQAEDVAVYFCQQHYSTPWTFGGGAKVEIKR	7.58
3) h20-VH2-VL5 (candidate 20.10) (antibody, human IgG4 S228P, kappa, V domains shown, hIgG4-S228P/kappa; also called h20-H2-L5) VH: QVQLVQSGAEVKKPGASVKVSCKASGYSFTDYYINWVRQAPGQGLEWMGRIYPGIGNTYYNKKFKGRVTITRDTSASTAYMELSSLRSEDTAVYYCARGHYGRGMDYWGQGTLVTVSS VL: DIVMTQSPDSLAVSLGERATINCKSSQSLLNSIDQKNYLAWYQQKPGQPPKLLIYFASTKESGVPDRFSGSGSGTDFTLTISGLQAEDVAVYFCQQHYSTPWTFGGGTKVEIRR	5.85
